Target: human Cav3.2 channels (Homo sapiens, UniProt O95180)
Construct: expressed in transfected cells; host or cells: HEK293 cells (ATCC No. CRL-1573), plasmid pcDNA3.1(+)
Sequence (O95180 whole entry): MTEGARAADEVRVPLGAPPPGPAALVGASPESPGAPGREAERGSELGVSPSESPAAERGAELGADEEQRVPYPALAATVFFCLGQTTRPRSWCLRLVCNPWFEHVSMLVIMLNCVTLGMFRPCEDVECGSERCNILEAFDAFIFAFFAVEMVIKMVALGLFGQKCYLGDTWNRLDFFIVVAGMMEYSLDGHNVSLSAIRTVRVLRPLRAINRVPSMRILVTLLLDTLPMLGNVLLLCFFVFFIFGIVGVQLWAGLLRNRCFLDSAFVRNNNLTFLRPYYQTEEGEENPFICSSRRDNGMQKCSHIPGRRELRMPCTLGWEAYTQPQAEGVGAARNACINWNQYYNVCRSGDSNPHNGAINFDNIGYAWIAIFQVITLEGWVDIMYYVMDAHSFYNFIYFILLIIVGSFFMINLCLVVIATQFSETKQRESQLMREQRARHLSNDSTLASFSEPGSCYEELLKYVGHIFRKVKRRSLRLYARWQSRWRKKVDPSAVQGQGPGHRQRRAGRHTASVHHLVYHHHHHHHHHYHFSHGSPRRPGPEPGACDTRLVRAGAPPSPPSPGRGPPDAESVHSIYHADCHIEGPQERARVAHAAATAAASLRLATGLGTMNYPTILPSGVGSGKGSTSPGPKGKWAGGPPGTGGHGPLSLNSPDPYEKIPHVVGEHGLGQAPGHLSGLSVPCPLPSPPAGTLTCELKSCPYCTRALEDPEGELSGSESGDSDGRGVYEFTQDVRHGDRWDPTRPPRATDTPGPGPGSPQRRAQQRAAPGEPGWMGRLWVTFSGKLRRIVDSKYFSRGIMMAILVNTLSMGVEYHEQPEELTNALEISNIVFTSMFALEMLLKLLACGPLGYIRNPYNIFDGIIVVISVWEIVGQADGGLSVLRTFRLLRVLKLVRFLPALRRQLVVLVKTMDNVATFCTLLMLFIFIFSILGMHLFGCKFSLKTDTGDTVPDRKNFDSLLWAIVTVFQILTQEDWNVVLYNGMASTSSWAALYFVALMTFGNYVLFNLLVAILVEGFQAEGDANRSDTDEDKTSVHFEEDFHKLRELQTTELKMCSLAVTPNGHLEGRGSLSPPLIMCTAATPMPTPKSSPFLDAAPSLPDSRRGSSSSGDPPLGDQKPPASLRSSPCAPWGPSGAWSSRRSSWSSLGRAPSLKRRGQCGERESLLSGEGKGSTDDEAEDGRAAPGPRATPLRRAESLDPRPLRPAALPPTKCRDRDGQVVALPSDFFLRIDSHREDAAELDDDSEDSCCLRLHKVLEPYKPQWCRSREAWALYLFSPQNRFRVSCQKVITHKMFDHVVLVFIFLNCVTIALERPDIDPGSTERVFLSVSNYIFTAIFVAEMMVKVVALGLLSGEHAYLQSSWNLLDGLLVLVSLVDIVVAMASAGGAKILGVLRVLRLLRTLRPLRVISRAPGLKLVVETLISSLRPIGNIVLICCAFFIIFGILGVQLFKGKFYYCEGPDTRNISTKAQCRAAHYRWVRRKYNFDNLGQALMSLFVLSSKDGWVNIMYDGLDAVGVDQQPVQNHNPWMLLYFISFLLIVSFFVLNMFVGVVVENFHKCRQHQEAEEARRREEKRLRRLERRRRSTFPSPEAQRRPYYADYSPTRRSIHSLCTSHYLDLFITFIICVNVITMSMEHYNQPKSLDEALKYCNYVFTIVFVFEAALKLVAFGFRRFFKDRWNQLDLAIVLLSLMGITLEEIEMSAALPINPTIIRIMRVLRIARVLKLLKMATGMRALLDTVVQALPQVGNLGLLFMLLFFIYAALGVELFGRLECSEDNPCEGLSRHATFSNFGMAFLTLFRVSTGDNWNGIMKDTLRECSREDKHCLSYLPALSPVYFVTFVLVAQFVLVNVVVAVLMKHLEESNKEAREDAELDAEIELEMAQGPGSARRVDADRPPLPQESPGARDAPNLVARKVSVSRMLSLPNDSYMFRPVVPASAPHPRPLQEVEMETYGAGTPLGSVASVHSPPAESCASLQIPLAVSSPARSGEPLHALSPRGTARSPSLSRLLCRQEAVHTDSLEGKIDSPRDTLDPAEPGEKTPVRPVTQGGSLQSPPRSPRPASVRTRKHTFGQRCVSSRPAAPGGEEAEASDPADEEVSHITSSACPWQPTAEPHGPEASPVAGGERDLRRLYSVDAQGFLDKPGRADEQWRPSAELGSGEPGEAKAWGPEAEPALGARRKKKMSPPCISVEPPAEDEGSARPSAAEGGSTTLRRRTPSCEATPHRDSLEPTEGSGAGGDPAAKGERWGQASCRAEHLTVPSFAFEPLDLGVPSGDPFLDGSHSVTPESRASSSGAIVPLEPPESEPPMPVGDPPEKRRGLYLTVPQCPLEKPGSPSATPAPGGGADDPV
Experiment: Intracellular calcium concentration measurement (Fluo-4 AM) in stable cells expressing human Cav3.2 channels, buffer A / buffer B
Assay type: cell-based
Conditions: Tables 2 to 6; buffer A, equilibrium potential of potassium −92 mV; read-out: Inhibitory action of buffer A (inactivated state)
Protocol: Construction of Stable Cells Expressing Human Cav3.2 Channels […] Stable cell line expressing human Cav3.2 channels, which had been produced in (1), was seeded in a 96-well plate using DMEM medium including 10% FBS, and the cells were cultured for 48 hours under the conditions of 37° C. and 5% CO2. […] The cells were left to stand for another 15 minutes at room temperature in the dark, and the cells were analyzed using the following method using a microplate reader, EnVision (PerkinElmer, Inc.). […]
pIC50: −log10 of the molar value.
Parameter: pIC50. Scope: all listed entries.

Molecule	Target Desc	pIC50
O=C(NC1(c2cc3cc(F)ccc3o2)CC1)[C@H]1C[C@@H]1c1nc2ccccc2[nH]1	human Cav3.2 channels (Homo sapiens, UniProt O95180)	6.00 to 7.00
C[C@@H](NC(=O)C1CC1C(=O)Nc1cccc(C(F)(F)F)c1)c1cc2cc(F)ccc2o1 (single isomer, unassigned) [Example 130B]	human Cav3.2 channels (Homo sapiens, UniProt O95180)	6.00 to 7.00
O=C(NCc1cc2cc(F)ccc2o1)[C@H]1C[C@@H]1c1nc2ccccc2[nH]1	human Cav3.2 channels (Homo sapiens, UniProt O95180)	≥ 7.00
C[C@@H](NC(=O)C1CC1c1ncc2ccccn12)c1cc2cc(F)ccc2o1 (single isomer, unassigned) [Example 117A]	human Cav3.2 channels (Homo sapiens, UniProt O95180)	6.00 to 7.00
C[C@@H](NC(=O)[C@H]1C[C@@H]1c1nc2ccccc2[nH]1)c1cc2ccc(C(F)(F)F)cc2o1	human Cav3.2 channels (Homo sapiens, UniProt O95180)	≥ 7.00
C[C@@H](NC(=O)C1CC1c1nc2ccccc2[nH]1)c1ccc(C(N)=O)s1 (single isomer, unassigned)	human Cav3.2 channels (Homo sapiens, UniProt O95180)	< 5.00
C[C@@H](NC(=O)[C@H]1C[C@@H]1c1nc(-c2ccccn2)c[nH]1)c1ccc(OCC(F)(F)F)s1	human Cav3.2 channels (Homo sapiens, UniProt O95180)	6.00 to 7.00
C[C@@H](NC(=O)[C@H]1C[C@@H]1c1nc2ccccc2[nH]1)c1cc2c(F)cccc2o1	human Cav3.2 channels (Homo sapiens, UniProt O95180)	6.00 to 7.00

###

biological target: CYP3A4 (Homo sapiens, UniProt P08684); construct: purchased Cypex, Ltd; host or cells: E. coli membranes (Bactosomes); assay: Evaluation of CYP3A4 activity inhibitory action; assay type: in vitro ADME; conditions: Human CYP3A4BR EasyCYP Bactosomes, 7-Benzyloxy-4-(trifluoromethyl)-coumarin
Sequence (P08684 whole entry): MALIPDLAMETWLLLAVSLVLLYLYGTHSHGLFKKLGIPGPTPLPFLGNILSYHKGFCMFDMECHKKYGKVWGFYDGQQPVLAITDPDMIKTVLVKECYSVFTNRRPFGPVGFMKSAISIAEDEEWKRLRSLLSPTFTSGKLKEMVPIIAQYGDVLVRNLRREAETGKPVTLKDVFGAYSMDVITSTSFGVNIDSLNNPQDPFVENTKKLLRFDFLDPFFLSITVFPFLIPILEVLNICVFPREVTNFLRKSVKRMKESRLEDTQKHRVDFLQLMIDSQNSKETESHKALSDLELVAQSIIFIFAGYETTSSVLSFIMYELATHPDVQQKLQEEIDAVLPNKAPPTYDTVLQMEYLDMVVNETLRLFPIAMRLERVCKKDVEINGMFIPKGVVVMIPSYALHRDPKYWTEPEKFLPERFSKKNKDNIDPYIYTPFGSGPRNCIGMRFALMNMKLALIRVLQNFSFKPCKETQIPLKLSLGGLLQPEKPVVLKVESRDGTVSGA
Observable: CYP3A4 activity inhibition ratio at 10 μM of test compound (%)

Molecule	Quantitative Result
C[C@@H](NC(=O)C1CC1c1nc2ccccc2[nH]1)c1ccc(C(=O)OC(C)(C)C)s1 (stereo partly shown)	8.7
C[C@@H](NC(=O)Cc1ccc(C2CC2)cc1)c1ccc(OCC(F)(F)F)cn1 [TTA-A2, reference compound]	55.7
C[C@@H](NC(=O)C1CC1c1nccn1C)c1ccc(OCC(F)(F)F)s1 (mixture of isomers)	27.4
C[C@@H](NC(=O)C1CC1c1nc2ccccc2[nH]1)c1ccc(C(F)(F)F)s1 (single isomer, unassigned)	13.0
C[C@@H](NC(=O)[C@H]1C[C@@H]1c1nc2ccccc2[nH]1)c1nc2ccc(F)cc2o1	30.0
C[C@@H](NC(=O)C1CC1c1ccc2ccccc2n1)c1ccc(OCC(F)(F)F)s1 (stereo partly shown)	19.6
C[C@@H](NC(=O)[C@H]1C[C@@H]1c1nc2ccccc2[nH]1)c1ccc2cc[nH]c2c1	53.5

###

Biological target: human Cav3.2 channels (Homo sapiens, UniProt O95180)
Construct: expressed in transfected cells; host or cells: HEK293 cells (ATCC No. CRL-1573), plasmid pcDNA3.1(+)
Experiment: Electrophysiological evaluation, whole-cell patch-clamp with automatic patch-clamp system
Type: cell-based
Details: 0.3 μM, holding potential −80 mV; read-out: Cav3.2 channel current inhibition ratio at 0.3 μM of test compound (holding potential −80 mV)
Protocol: Electrophysiological Evaluation Stable cell line expressing human Cav3.2 channels, which had been produced by Test method (1) of Example 140, was seeded in a 10-cm dish using DMEM medium containing 10% FBS, and the cells were cultured for 24 hours or longer under the conditions of 37° C. and 5% CO2. The cells were detached using Accutase and were used after being suspended in ice-cold extracellular solution. […]
Response key: met means inhibition at 0.3 µM >= 50%; not met means inhibition at 0.3 µM < 50%.

Compound	Classification
C[C@@H](NC(=O)[C@H]1C[C@@H]1c1nc2ccccc2[nH]1)c1cc2c(F)cc(F)cc2o1	met
C[C@@H](NC(=O)C1CC1c1c[nH]c2ccccc12)c1cnc(OCC(F)(F)F)s1 (single isomer, unassigned)	not met
C[C@@H](NC(=O)[C@@H]1CCN(CC(=O)NC(C)(C)C)C1)c1ccc(OCC(F)(F)F)s1.Cl [Example 15, hydrochloride]	not met
C[C@@H](NC(=O)[C@@H]1CCN(CC(=O)Nc2ccccc2)C1)c1ccc(OCC(F)(F)F)s1.Cl [Example 17, hydrochloride]	met
Cc1c([C@@H](C)NC(=O)[C@H]2C[C@@H]2c2nc3ccccc3[nH]2)oc2ccc(F)cc12	met
CCn1c([C@H]2C[C@@H]2C(=O)N[C@H](C)c2cc3cc(F)ccc3o2)nc2ccccc21	met
C[C@@H](NC(=O)C1CC1c1ccc2ccccc2n1)c1ccc(OCC(F)(F)F)s1 (single isomer, unassigned) [Example 34A]	met
C[C@@H](NC(=O)C1CC1c1nc2ccccc2[nH]1)c1ccc(C(=O)N2CCCCC2)s1 (stereo in doubt)	met
C[C@@H](NC(=O)[C@H]1C[C@@H]1c1nc2ccccc2[nH]1)c1ccc2ccccc2n1	not met
C[C@@H](NC(=O)C1CC1c1nc2ccccc2n1C)c1ccc(OCC(F)(F)F)s1 (single isomer, unassigned)	met
C[C@@H](NC(=O)[C@H]1C[C@@H]1c1nc2ccccc2[nH]1)c1cc2ccccn2n1	not met
C[C@@H](NC(=O)[C@H]1C[C@@H]1c1nc2ccccc2[nH]1)c1ccc(C(=O)N2CCC(F)(F)C2)s1	not met
C[C@@H](NC(=O)[C@@H]1CCN(CC(=O)NC23CC4CC(CC(C4)C2)C3)C1)c1ccc(OCC(F)(F)F)s1	met
C[C@@H](NC(=O)[C@H]1C[C@@H]1c1nc2ccccc2[nH]1)c1cc2cc(F)ccc2s1	met
